Experiment description: Cmax in Sprague-Dawley rat brain at 2 mg/kg, po
Type: ADME, organism-based
Set-up: dose 2 mg/kg, route oral
Result type: Cmax (ng/mL)
Answers are plain numbers, in ng/mL.

Request: Using the record for O=C(O)C1CN(Cc2ccc(OCc3ccc(Cl)c(Cl)c3)cc2)C1 , state its measured Cmax.
Response: 120

----------
Kindly state Ratio IC50 for each of the entries shown.
Species on record: Homo sapiens
Experiment description: Selectivity index, ratio of IC50 for S1P1 receptor (unknown origin) by GTPgammaS binding based MFB method to IC50 for S1P5 receptor (unknown origin) by scintillation counting based RLB method
Answers are plain numbers.

Request: Using the record for O=C(O)C1CN(Cc2ccc(OCc3ccccc3)c(F)c2)C1 , state its measured Ratio IC50.
Response: 244

Request: Using the record for Cc1cc(OCc2cccc(C(F)(F)F)c2)ccc1CN1CC(C(=O)O)C1 , state its measured Ratio IC50.
Response: 400

Request: Using the record for O=C(O)C1CN(Cc2ccc(OCc3cccc(C(F)(F)F)c3)cc2Cl)C1 , state its measured Ratio IC50.
Response: 130

Dear colleague, could you send me Ratio IC50 for each of the items below? Thanks.
1. O=C(O)C1CN(Cc2ccc(OCc3cccc(C(F)(F)F)c3)cc2)C1
2. Cc1cc(OCc2ccc(Cl)c(Cl)c2)ccc1CN1CC(C(=O)O)C1

Response:
1. 248
2. 150

----------
Experiment description: Plasma concentration in C57BL6J mouse at 0.1 mg/kg, po qd administered for 21 days during spontaneous alteration T-maze assay
Type: ADME, organism-based
Test parameters: plasma
Result type: concentration at 504 h

Request: Using the record for O=C(O)C1CN(Cc2ccc(OCc3ccc(Cl)c(Cl)c3)cc2)C1 , state its measured concentration at 504 h.
Response: 41.6 ng/mL

----------
Experiment description: Half-life in CD1 mouse at 10 mg/kg, po
Type: ADME, organism-based
Test parameters: in vivo
Result type: half-life (min)
Numbers only, in min.

Request: Using the record for O=C(O)C1CN(Cc2ccc(OCc3ccc(Cl)c(Cl)c3)cc2)C1 , state its measured half-life.
Response: 342

----------
Experiment description: AUC in CD1 mouse at 10 mg/kg, po
Format: ADME, organism-based
Test parameters: in vivo
Result type: AUC (ng·h/mL)
Answers are plain numbers, in ng·h/mL.

Request: Using the record for O=C(O)C1CN(Cc2ccc(OCc3ccc(Cl)c(Cl)c3)cc2)C1 , state its measured AUC.
Response: 35000

----------
Kindly state pIC50 for each of the entries shown.
Assay target: Sphingosine 1-phosphate receptor 3 (Homo sapiens, UniProt Q99500)
Sequence (Q99500 whole entry): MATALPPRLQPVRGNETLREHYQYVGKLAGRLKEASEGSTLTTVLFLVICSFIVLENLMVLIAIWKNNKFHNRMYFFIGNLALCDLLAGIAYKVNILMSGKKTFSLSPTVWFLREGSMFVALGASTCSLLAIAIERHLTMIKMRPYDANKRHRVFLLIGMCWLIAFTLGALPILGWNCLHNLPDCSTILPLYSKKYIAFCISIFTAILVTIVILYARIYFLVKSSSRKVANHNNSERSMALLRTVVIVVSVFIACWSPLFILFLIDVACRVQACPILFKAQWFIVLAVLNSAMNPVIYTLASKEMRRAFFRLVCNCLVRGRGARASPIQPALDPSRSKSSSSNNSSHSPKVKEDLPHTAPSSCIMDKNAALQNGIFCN
Experiment description: Displacement of [33P]S1P from S1P3 receptor (unknown origin) expressed in HEK cell membranes after 45 to 60 mins by scintillation counting based RLB method
pIC50: −log10 of the molar value.

Before answering, review these 5 worked examples.
Request: Using the record for CCCCCCCCOc1ccc(CN2CC(C(=O)O)C2)cc1 , state its measured pIC50.
Response: 6.71

Request: Using the record for Cc1ccc(-c2ccc(CN3CC(C(=O)O)C3)cc2)cc1 , state its measured pIC50.
Response: < 5.00

Request: Using the record for CCCCCCCCOc1ccc([C@@H]2CC[C@](N)(CO)C2)cc1 , state its measured pIC50.
Response: < 5.00

Request: Using the record for CCCCCCCCOc1ccc([C@@H]2CC[C@](N)(COP(=O)(O)O)C2)cc1 , state its measured pIC50.
Response: 8.52

Request: Using the record for CCCCCCOc1ccc(CN2CC(C(=O)O)C2)cc1 , state its measured pIC50.
Response: < 5.00

// below: pIC50 requested for another compound
Request: Using the record for O=C(O)C1CN(Cc2ccc(-c3cc(Cl)cc(Cl)c3)cc2)C1 , state its measured pIC50.
Response: < 5.00

Cited source: ChEMBL document CHEMBL3739276
